target: Mitogen-activated protein kinase 14 (Homo sapiens); details: at 0.1 µM;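 note: values are mean percent inhibition of p38α kinase from the GSK PKIS published kinase inhibitor set screen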
# inhibition annotations
Quick reminder: number only, in %, skip the unit.

1. C#Cc1cccc(Nc2ncnc3ccc(OCCCCNCCS(C)(=O)=O)cc23)c1 = 3.36
2. COc1cccc(/C=N/Nc2ncnc3c2cnn3-c2cccc(OC)c2)c1 = 5.18
3. c1ccc(-c2n[nH]cc2-c2ccnc(-c3ccc(OCCN4CCOCC4)cc3)c2)nc1 = 3.12
4. O=C(NCC1CC1)c1ccc(-c2cccc(C(=O)NC3CC3)c2)cc1 = 1.13
5. CCc1cccc(CC)c1/C=C/c1cncc(C(=O)NC)c1 = 3.92

Asked: # inhibition lookup, item CNC(=O)c1cncc(/C=C/c2c(C)cccc2C)c1
Given back: 1.86

Asked: # inhibition lookup, item O=C1Nc2ccc(I)cc2C1=Cc1cc(Br)c(O)c(Br)c1
Given back: 5.09

Asked: # inhibition lookup, item COc1ccc2cc(-c3c(-c4ccncc4)nc(-c4ccc(S(C)(=O)=O)cc4C)n3C)ccc2c1
Given back: 14.2

Asked: # inhibition lookup, item NC(=O)c1cc(-c2ccncc2)cc(-c2ccccc2)c1N
Given back: 6.9

Asked: # inhibition lookup, item CS(=O)(=O)CCNCc1cc(-c2cc3c(Nc4ccc(OCc5cccc(F)c5)c(Cl)c4)ncnc3s2)cs1
Given back: 7.29

Asked: # inhibition lookup, item C/C(Nc1ccc(S(N)(=O)=O)cc1)=C1/C(=O)Nc2ccccc21
Given back: 2.61

Asked: # inhibition lookup, item CN(c1ccc(NC(=O)Nc2c(Cl)cccc2Cl)cc1)c1ccnc(Nc2cccc(CS(C)(=O)=O)c2)n1
Given back: 2.39

Asked: # inhibition lookup, item NCc1ccc(-n2c(-c3nonc3N)nc3cnccc32)cc1
Given back: 4.72

Asked: # inhibition lookup, item Cc1nnc(-c2ccc(C)c(-c3ccc(C(=O)NCc4ccc(Cl)cc4)cc3)c2)o1
Given back: 9.97

Asked: # inhibition lookup, item COc1cc(N2CCN(C(C)C)CC2)ccc1Nc1nc(Nc2ccc(F)cc2C(=O)NC[C@@H](O)CO)c2cc[nH]c2n1
Given back: 2.09

###

biological target: Proto-oncogene tyrosine-protein kinase Src (Homo sapiens); conditions: at 0.1 µM;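 note: values are averaged inhibition of Src, tested against the GSK PKIS kinase inhibitor set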
# inhibition annotations
Quick reminder: number only, in %, skip the unit.

1. COc1ccc2ncn(-c3cc(O[C@H](C)c4ccccc4Cl)c(C(N)=O)s3)c2c1 = 6.13
2. CN(C)CCCNc1nccc(-c2c(-c3ccc(F)cc3)nn3cc(C(F)(F)F)ccc23)n1 = 16.6
3. CN(C)c1ccc2c(c1)/C(=C/Nc1ccc(S(N)(=O)=O)cc1)C(=O)N2 = -4.52
4. O=C1Nc2ccccc2/C1=C/Nc1ccc(-n2cncn2)cc1 = 9.95
5. O=C1Nc2ccc(I)cc2C1=Cc1cc(Br)c(O)c(Br)c1 = 8.18
6. COc1cc(N2CCN(C(C)C)CC2)ccc1Nc1nc(Nc2ccc(F)cc2C(=O)NC[C@@H](O)CO)c2cc[nH]c2n1 = 3.75
7. COc1cc(Nc2ncc3c(C)nc(-c4cccc(C(F)(F)F)c4)n3n2)cc(OC)c1OC = 22.6
8. COc1cccc(-n2cnc3c(N/N=C/c4ccncc4)ncnc32)c1 = 12.5
9. N#Cc1ccc(Oc2nccc(-c3c(-c4ccc(F)cc4)ncn3C3CCNCC3)n2)cc1 = 7.01
10. NC(=O)c1ccc(Oc2nccc(-c3c(-c4ccc(F)cc4)ncn3C3CCNCC3)n2)cc1 = 13

Asked: # inhibition lookup, item Cc1ccc(C(=O)NC(C)C)cc1-c1ccc(C(=O)NCC2CC2)cc1
Given back: -4.72

Asked: # inhibition lookup, item O=C(Nc1ccc(Oc2ccc3[nH]c(NC(=O)c4ccccc4)nc3c2)cc1)Nc1cc(C(F)(F)F)ccc1F
Given back: 4.33

Asked: # inhibition lookup, item COc1cc(C)c(N(C)C(=O)CN(C)C)cc1Nc1nc(Nc2cccc(F)c2C(N)=O)c2cc[nH]c2n1
Given back: 3.62

###

biological target: Serine/threonine-protein kinase pim-3 (Homo sapiens) (UniProt Q86V86); settings: at 0.1 µM;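 note: mean inhibition of PIM3 kinase activity, recorded in the GSK_PKIS screening set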
# inhibition annotations

Example entries begin here.
1) NCc1ccc(-n2c(-c3nonc3N)nc3cnccc32)cc1 = 16.4%
2) O=C(Nc1n[nH]c2cc(-c3cc(F)ccc3F)ccc12)C1CC1 = -2.08%
3) COc1ccc2ncn(-c3cc(O[C@H](C)c4ccccc4Cl)c(C(N)=O)s3)c2c1 = 0.05%
4) Cc1ccc(C(=O)NC2CCC2)cc1-c1ccc(C(=O)NCC2CC2)cc1 = -0.5%
5) Nc1nccc(-c2c(-c3ccc(F)cc3)ncn2C2CCC(O)CC2)n1 (stereo not given) = 0.04%

Asked: # inhibition lookup, item O=C(Nc1n[nH]c2cc(-c3ccccc3)ccc12)C1CC1
Given back: -2.16%

Asked: # inhibition lookup, item N#Cc1ccc(Oc2nccc(-c3c(-c4ccc(F)cc4)ncn3C3CCNCC3)n2)cc1
Given back: 0.29%

Asked: # inhibition lookup, item Cc1ccc(NC(=O)c2ccoc2)cc1-c1ccc(C(=O)NCC2CC2)cc1
Given back: 0.71%

Asked: # inhibition lookup, item NS(=O)(=O)c1ccc(N/N=C2\C(=O)Nc3ccc(C(=O)NCCCn4ccnc4)cc32)cc1
Given back: 3.06%

Asked: # inhibition lookup, item CCN(CC)Cc1ccc(Nc2nccc(-c3cnn4ncccc34)n2)cc1
Given back: 6.38%

###

Molecular target: Serine/threonine-protein kinase BRSK2 (Homo sapiens) (UniProt Q8IWQ3);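 note: mean kinase inhibition reported within the GSK PKIS dataset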
Sequence (whole entry): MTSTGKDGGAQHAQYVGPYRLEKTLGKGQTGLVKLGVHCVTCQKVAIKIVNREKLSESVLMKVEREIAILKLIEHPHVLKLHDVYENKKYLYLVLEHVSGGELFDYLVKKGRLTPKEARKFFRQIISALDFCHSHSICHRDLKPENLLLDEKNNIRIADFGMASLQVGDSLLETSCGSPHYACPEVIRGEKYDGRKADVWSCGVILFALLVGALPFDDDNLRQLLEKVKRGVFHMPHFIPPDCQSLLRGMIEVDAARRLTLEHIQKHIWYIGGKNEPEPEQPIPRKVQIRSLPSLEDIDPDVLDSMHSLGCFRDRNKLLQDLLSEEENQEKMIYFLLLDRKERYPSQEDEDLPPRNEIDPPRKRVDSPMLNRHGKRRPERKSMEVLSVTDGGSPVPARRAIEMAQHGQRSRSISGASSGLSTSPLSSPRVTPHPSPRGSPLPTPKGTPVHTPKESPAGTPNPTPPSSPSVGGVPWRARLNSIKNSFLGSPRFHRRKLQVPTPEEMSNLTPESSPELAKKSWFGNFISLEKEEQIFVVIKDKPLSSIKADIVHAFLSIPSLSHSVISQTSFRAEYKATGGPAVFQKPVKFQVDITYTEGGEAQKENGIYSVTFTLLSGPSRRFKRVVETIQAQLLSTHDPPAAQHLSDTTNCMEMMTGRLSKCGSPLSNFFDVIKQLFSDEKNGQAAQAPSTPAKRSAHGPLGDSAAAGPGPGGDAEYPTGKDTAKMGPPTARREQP
Settings: at 1 µM
reported.metric: inhibition (%)
Quick reminder: number only, in %, skip the unit.

1) C[C@@H](Oc1cc(-n2cnc3ccc(OC4CCN(C)CC4)cc32)sc1C(N)=O)c1ccccc1Cl = 70.8
2) CS(=O)(=O)CCNCc1cc(-c2cc3c(Nc4ccc(OCc5cccc(F)c5)c(Cl)c4)ncnc3s2)cs1 = 4.02
3) CN1CCN(CCCNc2nc3ccc(Oc4ccc(NC(=O)Nc5cc(C(F)(F)F)ccc5F)cc4)cc3[nH]2)CC1 = 0.19
4) NC(=O)c1ccc(Oc2nccc(-c3c(-c4ccc(F)cc4)ncn3C3CCNCC3)n2)cc1 = 1.56

Asked: # inhibition lookup, item COc1cc2ncn(-c3cc(OCc4ccccc4C(F)(F)F)c(C(C)=O)s3)c2cc1OC
Given back: 4.95

Asked: # inhibition lookup, item COc1cc(Nc2ncc(-c3ccccc3)o2)cc(OC)c1OC
Given back: 10.5

Asked: # inhibition lookup, item COc1ccc2ncn(-c3cc(O[C@H](C)c4ccccc4Cl)c(C(N)=O)s3)c2c1
Given back: 28.1

Asked: # inhibition lookup, item O=C1Nc2ccc(I)cc2C1=Cc1cc(Br)c(O)c(Br)c1
Given back: 2.23

Asked: # inhibition lookup, item NC(=O)c1cc(-c2ccncc2)cc(-c2ccccc2)c1N
Given back: 2.72

Asked: # inhibition lookup, item Cc1ccc(C(=O)NC(C)C)cc1-c1ccc(C(=O)NCC2CC2)cc1
Given back: 1.61

###

tested on: Proto-oncogene tyrosine-protein kinase receptor Ret (Homo sapiens), P07949 [V804L]; settings: at 1 µM
Sequence (P07949 whole entry V804L): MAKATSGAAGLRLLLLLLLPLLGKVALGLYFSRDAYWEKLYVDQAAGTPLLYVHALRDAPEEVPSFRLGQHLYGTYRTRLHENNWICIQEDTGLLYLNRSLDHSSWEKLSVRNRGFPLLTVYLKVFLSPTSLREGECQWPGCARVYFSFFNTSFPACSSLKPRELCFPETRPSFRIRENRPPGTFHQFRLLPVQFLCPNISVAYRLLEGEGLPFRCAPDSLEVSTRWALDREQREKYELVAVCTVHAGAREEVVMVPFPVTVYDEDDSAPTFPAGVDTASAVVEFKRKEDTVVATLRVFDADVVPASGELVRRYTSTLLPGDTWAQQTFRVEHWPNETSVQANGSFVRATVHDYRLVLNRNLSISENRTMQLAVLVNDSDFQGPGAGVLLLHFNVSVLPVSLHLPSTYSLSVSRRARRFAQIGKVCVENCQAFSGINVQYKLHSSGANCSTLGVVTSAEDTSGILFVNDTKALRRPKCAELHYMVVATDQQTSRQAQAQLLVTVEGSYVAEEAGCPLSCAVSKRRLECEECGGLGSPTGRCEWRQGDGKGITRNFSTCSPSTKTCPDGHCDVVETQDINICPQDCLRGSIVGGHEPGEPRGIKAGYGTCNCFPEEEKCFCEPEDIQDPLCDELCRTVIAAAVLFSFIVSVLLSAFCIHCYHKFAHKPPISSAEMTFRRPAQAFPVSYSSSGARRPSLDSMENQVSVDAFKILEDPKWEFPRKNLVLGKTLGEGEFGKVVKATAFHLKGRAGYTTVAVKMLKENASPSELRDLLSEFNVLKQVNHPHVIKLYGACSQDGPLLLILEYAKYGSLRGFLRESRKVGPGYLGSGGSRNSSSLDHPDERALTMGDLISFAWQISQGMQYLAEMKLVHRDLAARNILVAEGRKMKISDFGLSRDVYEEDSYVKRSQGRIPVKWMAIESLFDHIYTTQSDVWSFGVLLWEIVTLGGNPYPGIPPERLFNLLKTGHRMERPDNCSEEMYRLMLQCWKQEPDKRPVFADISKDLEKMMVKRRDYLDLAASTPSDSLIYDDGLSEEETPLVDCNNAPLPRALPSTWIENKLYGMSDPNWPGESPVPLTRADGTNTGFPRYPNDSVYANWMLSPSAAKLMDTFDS
reported.metric: inhibition (%)
Quick reminder: number only, in %, skip the unit.

Example entries begin here.
1) NCc1ccc(-n2c(-c3nonc3N)nc3cnccc32)cc1 = 9.65
2) COc1ccc2cc(-c3c(-c4ccncc4)nc(-c4ccc(S(C)(=O)=O)cc4C)n3C)ccc2c1 = 4.41
3) N#Cc1ccc(Oc2nccc(-c3c(-c4ccc(F)cc4)ncn3C3CCNCC3)n2)cc1 = 4.02

Asked: # inhibition lookup, item O=C1Nc2ccccc2/C1=C/Nc1ccc(-n2cncn2)cc1
Given back: 67.3

Asked: # inhibition lookup, item C#Cc1cccc(Nc2ncnc3ccc(OCCCCNCCS(C)(=O)=O)cc23)c1
Given back: 11.9

Asked: # inhibition lookup, item Cc1ccc(NC(=O)c2ccoc2)cc1-c1ccc(C(=O)NCC2CC2)cc1
Given back: 2.38
